# PROTOCOL DESCRIPTION: Pharmacokinetic evaluation in SD rats
# DETAILS: both sexes, rat, in vivo, po, i.g., 2.0 mg/kg, read-out: Apparent distribution volume Vz/F
MEASURE NAME: Vd/F (L/kg)
Hi! Could you send only the number? It should be in L/kg, unit omitted.

Some compounds with recorded Vd/F:
C[C@H]1CC2(CCN(c3ccc(C(=O)N4CCC(CN5CCN(c6cc(NC7CCC(=O)NC7=O)ccc6F)CC5)CC4)cc3)CC2)CN1c1ccc(C#N)c(Cl)c1 (stereo partly shown)
26.3
C[C@H]1CC2(CCN(c3ccc(C(=O)N4CCC(CN5CCN(c6cccc(NC7CCC(=O)NC7=O)c6)CC5)CC4)cc3)CC2)CN1c1ccc(C#N)c(Cl)c1 (stereo partly shown)
34.8
C[C@H]1CC2(CCN(c3ccc(C(=O)N4CCC5(CC4)CC(N4CCN(c6ccc(N7CCC(=O)NC7=O)cc6)CC4)C5)cc3)CC2)CN1c1ccc(C#N)c(Cl)c1
66.6

Would you kindly share the measured Vd/F for C[C@H]1CC2(CCN(c3ccc(C(=O)N4CCC(CN5CCN(c6cccc(NC7CCC(=O)NC7=O)c6)CC5)CC4)nc3)CC2)CN1c1ccc(C#N)c(Cl)c1 (stereo partly shown) ?
63.1

* * *

# SUBJECT OF TEST: androgen receptor (AR) (Homo sapiens, UniProt P10275, T878A)
# Construct: host or cells: LNCaP human prostate cancer cells
# Sequence (P10275 whole entry T878A): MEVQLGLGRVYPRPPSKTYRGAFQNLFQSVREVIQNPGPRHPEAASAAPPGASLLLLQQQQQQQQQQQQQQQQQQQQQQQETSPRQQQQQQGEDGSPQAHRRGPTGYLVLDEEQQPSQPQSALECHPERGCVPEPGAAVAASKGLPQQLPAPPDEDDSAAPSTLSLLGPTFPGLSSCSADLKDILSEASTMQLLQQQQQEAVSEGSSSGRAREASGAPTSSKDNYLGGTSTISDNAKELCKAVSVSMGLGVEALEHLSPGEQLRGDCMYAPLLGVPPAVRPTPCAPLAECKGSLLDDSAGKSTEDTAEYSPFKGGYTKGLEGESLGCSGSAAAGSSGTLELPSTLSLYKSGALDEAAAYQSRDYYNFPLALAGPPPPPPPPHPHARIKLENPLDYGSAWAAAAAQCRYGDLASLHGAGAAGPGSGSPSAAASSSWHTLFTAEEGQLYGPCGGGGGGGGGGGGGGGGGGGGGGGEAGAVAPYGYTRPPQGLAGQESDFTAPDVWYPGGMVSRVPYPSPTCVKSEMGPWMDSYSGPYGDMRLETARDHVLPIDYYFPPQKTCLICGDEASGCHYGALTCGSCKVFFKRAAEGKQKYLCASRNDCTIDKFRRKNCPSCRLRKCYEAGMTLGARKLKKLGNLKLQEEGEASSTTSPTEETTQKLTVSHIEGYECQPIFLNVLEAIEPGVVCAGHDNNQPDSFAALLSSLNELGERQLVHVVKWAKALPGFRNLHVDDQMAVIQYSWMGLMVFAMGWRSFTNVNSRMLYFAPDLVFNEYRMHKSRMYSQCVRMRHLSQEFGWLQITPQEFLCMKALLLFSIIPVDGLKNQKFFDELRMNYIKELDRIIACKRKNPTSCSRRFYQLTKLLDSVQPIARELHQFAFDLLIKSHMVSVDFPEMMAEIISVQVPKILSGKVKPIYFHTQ
# PROTOCOL DESCRIPTION: Degradation activity on androgen receptor in LNCaP cells (AR ELISA)
# Type: cell-based
# DETAILS: 0.1 nM R1881, 24 hours, read-out: LNCaP DC50
MEASURE NAME: DC50 (nM)
Hi! Could you send only the number? It should be in nM, unit omitted.

C[C@H]1CC2(CCN(c3ccc(C(=O)N4CCC5(CC4)CC(N4CCN(c6ccc(N7CCC(=O)NC7=O)cc6)CC4)C5)nc3)CC2)CN1c1ccc(C#N)c(Cl)c1
1
C[C@H]1CC2(CCN(c3ccc(C(=O)N4CCC(CN5CCN(c6cccc(NC7CCC(=O)NC7=O)c6)CC5)CC4)nc3)CC2)CN1c1ccc(C#N)c(Cl)c1 (some centres unmarked)
1.3
C[C@H]1CC2(CCN(c3ccc(C(=O)N4CCC(CN5CCN(c6cccc(NC7CCC(=O)NC7=O)c6)CC5)CC4)nn3)CC2)CN1c1ccc(C#N)c(Cl)c1 (some centres unmarked)
0.5
C[C@H]1CC2(CCN(c3ccc(C(=O)N4CCC(CN5CC(N6CCN(c7ccc(N8CCC(=O)NC8=O)cc7)CC6)C5)CC4)cc3)CC2)CN1c1ccc(C#N)c(Cl)c1
1.6
C[C@H]1CC2(CCN(c3ccc(C(=O)N4CC(CN5CCN(c6cccc(NC7CCC(=O)NC7=O)c6)CC5)C4)cc3)CC2)CN1c1ccc(C#N)c(Cl)c1 (some centres unmarked)
1.9
C[C@H]1CC2(CCN(c3ccc(C(=O)N4CCC(CN5CCC(c6cccc(NC7CCC(=O)NC7=O)c6)CC5)CC4)cc3)CC2)CN1c1ccc(C#N)c(Cl)c1 (some centres unmarked)
1.8
C[C@H]1CC2(CCN(c3ccc(C(=O)N4CCC(CN5CCN(c6cc(NC7CCC(=O)NC7=O)ccn6)CC5)CC4)cc3)CC2)CN1c1ccc(C#N)c(Cl)c1 (some centres unmarked)
9.1
C[C@H]1CC2(CCN(c3ccc(C(=O)N4CCC(CN5CCN(c6ccccc6NC6CCC(=O)NC6=O)CC5)CC4)cc3)CC2)CN1c1ccc(C#N)c(Cl)c1 (some centres unmarked)
13.9

Would you kindly share the measured DC50 for C[C@H]1CC2(CCN(c3ccc(C(=O)N4CCN(CC5CCN(c6cccc(NC7CCC(=O)NC7=O)c6)CC5)CC4)cc3)CC2)CN1c1ccc(C#N)c(Cl)c1 (some centres unmarked) ?
7.6

Queued: C[C@H]1CC2(CCN(c3ccc(C(=O)N4CCC(CN5CCN(c6cc(NC7CCC(=O)NC7=O)ccc6F)CC5)CC4)cc3)CC2)CN1c1ccc(C#N)c(Cl)c1 (some centres unmarked)
6.1

Queued: `C[C@H]1CC2(CCN(c3ccc(C(=O)N4CCC5(CCC(N6CCN(c7ccc(N8CCC(=O)NC8=O)cc7)CC6)CC5)CC4)cc3)CC2)CN1c1ccc(C#N)c(Cl)c1`
12

Queued: C[C@H]1CC2(CCN(c3ccc(C(=O)N4CCC(CN5CCN(c6cccc(NC7CCC(=O)NC7=O)c6)CC5)CC4)cc3)CC2)CN1c1ccc(C#N)c(Cl)c1 (some centres unmarked)
7.3
